- protocol-text: solvent given as SMILES
- condition-info: in CC1CCCCC1
parameter: absorption maximum (nm)
Give the value, in units of nm, as a plain number.

Input: For the compound COC(=O)C(NC(=O)OC(C)(C)C)c1ccc2oc(-c3cc(OC)ccc3OC)nc2c1 (stereo not given) , what absorption maximum is on record?
Output: 332

Input: For "CCOc1ccc(/C=C/C=C/C=C/c2ccc([N+](=O)[O-])cc2)cc1" then?
Output: 414

Input: For "O=c1oc2ccccc2cc1-c1nc2ccccc2o1" then?
Output: 356

Input: For "C(=C\c1c2ccccc2cc2ccccc12)/c1ccc2ccccc2c1" then?
Output: 386

Input: For "O=C1OC(c2ccccc2)=N/C1=C\c1ccc(N(c2ccc(/C=C3\N=C(c4ccccc4)OC3=O)cc2)c2ccc(/C=C3/N=C(c4ccccc4)OC3=O)cc2)cc1" then?
Output: 498.5

Input: For "c1ccncc1" then?
Output: 252

Input: For "CN(C)c1ccc(/C=C/c2nc3c4ccccc4c4ccccc4c3[nH]2)cc1" then?
Output: 386

Input: For "C(=C\c1ccnc2ccccc12)/c1c2ccccc2cc2ccccc12" then?
Output: 387

Input: For "c1cc(N2CCCC2)ccn1" then?
Output: 293

Input: For "COc1cc(-c2nnc(-c3ccc4ccc5cccc6ccc3c4c56)o2)cc(OC)c1OC" then?
Output: 392

Input: For "O=C1C=C(Nc2ccccc2)CCC1" then?
Output: 295

Input: For "CCCCOc1ccc(/C=C/C=C/C=C/c2ccc([N+](=O)[O-])cc2)cc1" then?
Output: 414

Input: For COC(=O)C(NC(=O)OC(C)(C)C)c1ccc2oc(-c3cccc(Oc4ccccc4)c3)nc2c1 (stereo not given) then?
Output: 321

Input: For "C(=C\c1c2ccccc2cc2ccccc12)/c1cccc2ccccc12" then?
Output: 386

Input: For "CN(C)c1ccc(C2=Cc3ccc4ccccc4[n+]3[B-](F)(F)O2)cc1" then?
Output: 473

Values from the Deep4Chem optical property database
